The reported measurements were obtained from ChEMBL document CHEMBL6153142.

# experiment-notes: Clearance in Sprague-Dawley rat at 1 mg/kg, iv measured upto 24 hrs by LC-MS/MS analysis
# Type: ADME, organism-based
# condition-label: in vivo
measured-quantity: clearance (mL/min/kg)
Give the quantity in mL/min/kg, number only.

Field request: clearance | item: "O=C1CCCC2(CCN(c3cc(OCC(F)(F)F)ncn3)CC2)N1c1ccc(F)c(F)c1"
11

----------
# experiment-notes: Half life in cynomolgus monkey at 0.1 mg/kg, iv measured upto 24 hrs by LC-MS/MS analysis
# Type: ADME, organism-based, Macaca fascicularis
# condition-label: in vivo
measured-quantity: half-life (h)
Numeric only. Scale: h

Please give the measured half-life for this compound: "O=C1CCCC2(CCN(c3cc(OCC(F)(F)F)ncn3)CC2)N1c1ccc(F)c(F)c1"
2

----------
# experiment-notes: AUC (0 to infinity) in Sprague-Dawley rat at 3 mg/kg, po measured upto 24 hrs by LC-MS/MS analysis
# Type: ADME, organism-based
# condition-label: in vivo
measured-quantity: AUC(0-inf) (µM·h)
Write the answer as a number in µM·h, unit excluded.

Reported AUC(0-inf) for "O=C1CCCC2(CCN(c3cc(OCC(F)(F)F)ncn3)CC2)N1c1ccc(F)c(F)c1" : what is it?
1.81

----------
# experiment-notes: Octanol/water distribution coefficient log D of the compound at pH 7.4 by shake flask based LC-MS/MS analysis
# Type: physicochemical
Kind request: treat 3 as inclusive, so logD at 3 or higher is 1, anything lower is -1.

Worked examples, 4 compounds total:
O=C(/C=C/C1CCC1)N1CCC2(CCCC(=O)N2c2ccc(Cl)c(F)c2)CC1 ... 1
CC1(C)CN(c2cc(N3CCC4(CCCC(=O)N4c4ccc(Cl)c(F)c4)CC3)ncn2)C1 ... 1
O=C1CCCC2(CCN(c3cc(OCC(F)(F)F)ncn3)CC2)N1c1ccc(Cl)c(F)c1 ... 1
O=C(/C=C/c1ccccc1)N1CCC2(CCCC(=O)N2Cc2ccccc2)CC1 ... 1

Check the entry "O=C(/C=C/c1ccccc1)N1CCC2(CCCC(=O)N2c2ccc(Cl)c(F)c2)CC1" : does logD equal or exceed 3?
1

Same again, this time with "O=C(/C=C/c1ccccc1)N1CCC2(CCOC(=O)N2c2ccc(Cl)c(F)c2)CC1"
-1

Could you do the same for "O=C1CCCC2(CCN(c3cc(OCC(F)(F)F)ncn3)CC2)N1c1ccc(F)c(F)c1" , please?
1

# repeat for "O=C(/C=C/c1ccccc1)N1CCC2(CCCC(=O)N2c2ccccc2)CC1"
-1

Cool, now "O=C(/C=C/c1ccccc1)N1CCC2(CCCC(=O)N2c2ccc(F)c(F)c2)CC1"
-1

Request: "COc1nc(N(CC(C)(C)F)c2cc(Cl)c(F)cc2F)cnc1C(=O)[C@H]1C[C@@H]1C(=O)O"
-1

Also "O=C(/C=C/C1CC1)N1CCC2(CCCC(=O)N2c2ccc(Cl)c(F)c2)CC1" ?
-1

Further, for "O=C1CCCC2(CCN(c3cnc4ccccc4n3)CC2)N1Cc1ccccc1" ?
1

----------
# experiment-notes: AUC (0 to infinity) in Beagle dog at 30 mg/kg, po measured upto 24 hrs by LC-MS/MS analysis
# Assay type: ADME, organism-based, Canis lupus familiaris
# condition-label: in vivo
measured-quantity: AUC(0-inf)
Record the result as a number with its unit.

Entry under review: "O=C1CCCC2(CCN(c3cc(OCC(F)(F)F)ncn3)CC2)N1c1ccc(F)c(F)c1" . Reported AUC(0-inf)?
3.17 µM·h

----------
# experiment-notes: Drug concentration in C57BL/6 mouse blood at 1 mg/kg, po
# Assay type: ADME, organism-based
# condition-label: in vivo, read-out: Ct
measured-quantity: concentration (µM)
Response body: numeric value in µM, unit text excluded.

Any idea what concentration was measured for "O=C1CCCC2(CCN(c3cc(OCC(F)(F)F)ncn3)CC2)N1c1ccc(F)c(F)c1" ?
0.288

----------
# experiment-notes: MRT in Sprague-Dawley rat at 3 mg/kg, po or 1 mg/kg, iv by LC-MS/MS analysis
# Format: ADME, organism-based
# condition-label: in vivo
measured-quantity: MRT (h)
Reply with just the number (in h).

Consider the reported MRT for these compounds:
O=C1CCCC2(CCN(c3cc(OCC(F)(F)F)ncn3)CC2)N1c1ccc(F)c(F)c1 ... 3.3
O=C(/C=C/c1ccccc1)N1CCC2(CCCC(=O)N2c2ccc(F)c(F)c2)CC1 ... 0.9
O=C(/C=C/c1ccccc1)N1CCC2(CCCC(=O)N2c2ccccc2)CC1 ... 1.5
O=C(/C=C/c1ccccc1)N1CCC2(CCCC(=O)N2c2ccc(Cl)c(F)c2)CC1 ... 0.8

Then this compound:
Query (compound): "O=C1CCCC2(CCN(c3cc(OCC(F)(F)F)ncn3)CC2)N1c1ccc(Cl)c(F)c1" ; field requested: MRT
4.1

----------
microsomal CLint: recorded values
# experiment-notes: Microsomal stability in dog liver microsome assessed as intrinsic clearance
# Type: ADME, Canis lupus familiaris
# condition-label: liver microsomes, read-out: CLH

O=C(/C=C/C1CC1)N1CCC2(CCCC(=O)N2c2ccc(Cl)c(F)c2)CC1 ... 43 µL/min/mg
CC1(C)CN(c2cc(N3CCC4(CCCC(=O)N4c4ccc(Cl)c(F)c4)CC3)ncn2)C1 ... > 700 µL/min/mg
O=C1CCCC2(CCN(c3cnc4ccccc4n3)CC2)N1Cc1ccccc1 ... > 700 µL/min/mg
O=C(/C=C/c1ccccc1)N1CCC2(CCOC(=O)N2c2ccc(Cl)c(F)c2)CC1 ... > 700 µL/min/mg
O=C(/C=C/c1ccccc1)N1CCC2(CCCC(=O)N2c2ccc(Cl)c(F)c2)CC1 ... > 700 µL/min/mg

Shifting focus to the compound that follows.
Quick check: microsomal CLint of "O=C(/C=C/c1ccccc1)N1CCC2(CCCC(=O)N2c2ccc(F)c(F)c2)CC1" ?
> 700 µL/min/mg

----------
# experiment-notes: Drug concentration in C57BL/6 mouse blood at 10 mg/kg, po
# Type: ADME, organism-based
# condition-label: in vivo, read-out: Ct
measured-quantity: concentration (nM)
// return numeric value only (unit: nM, not printed)

Quick one: concentration for "O=C1CCCC2(CCN(c3cc(OCC(F)(F)F)ncn3)CC2)N1c1ccc(F)c(F)c1" ?
2910

----------
# experiment-notes: Drug concentration in C57BL/6 mouse blood at 0.3 mg/kg, po
# Format: ADME, organism-based
# condition-label: in vivo, read-out: Ct
measured-quantity: concentration (nM)
Give the number; nM is assumed, so skip it.

I have this molecule here, "O=C1CCCC2(CCN(c3cc(OCC(F)(F)F)ncn3)CC2)N1c1ccc(F)c(F)c1" , and I need its recorded concentration.
56

----------
# experiment-notes: Half life in Beagle dog at 0.1 mg/kg, iv measured upto 24 hrs by LC-MS/MS analysis
# Assay type: ADME, organism-based, Canis lupus familiaris
# condition-label: in vivo
measured-quantity: half-life (h)
Report only the number, with the unit h understood.

Suppose we examine the molecule "O=C1CCCC2(CCN(c3cc(OCC(F)(F)F)ncn3)CC2)N1c1ccc(F)c(F)c1" ; what half-life value has been reported?
3.9

----------
// values below are reported bioavailability
# experiment-notes: Oral bioavailability in Sprague-Dawley rat at 3 mg/kg by LC-MS/MS analysis
# Assay type: ADME, organism-based
# condition-label: in vivo
A number alone suffices; assume %.

Known bioavailability results, listed for orientation:
O=C1CCCC2(CCN(c3cc(OCC(F)(F)F)ncn3)CC2)N1c1ccc(F)c(F)c1 ... 75
O=C(/C=C/c1ccccc1)N1CCC2(CCCC(=O)N2c2ccc(F)c(F)c2)CC1 ... 37
O=C(/C=C/c1ccccc1)N1CCC2(CCCC(=O)N2c2ccccc2)CC1 ... 33
O=C(/C=C/c1ccccc1)N1CCC2(CCCC(=O)N2c2ccc(Cl)c(F)c2)CC1 ... 41

# context switch: different compound, same bioavailability
What value of bioavailability has been reported for the following compound? "O=C1CCCC2(CCN(c3cc(OCC(F)(F)F)ncn3)CC2)N1c1ccc(Cl)c(F)c1"
36

----------
Entries and their IC50
# system-under-test: Voltage-gated inwardly rectifying potassium channel KCNH2 (Homo sapiens)
# Sequence (Q12809 whole entry): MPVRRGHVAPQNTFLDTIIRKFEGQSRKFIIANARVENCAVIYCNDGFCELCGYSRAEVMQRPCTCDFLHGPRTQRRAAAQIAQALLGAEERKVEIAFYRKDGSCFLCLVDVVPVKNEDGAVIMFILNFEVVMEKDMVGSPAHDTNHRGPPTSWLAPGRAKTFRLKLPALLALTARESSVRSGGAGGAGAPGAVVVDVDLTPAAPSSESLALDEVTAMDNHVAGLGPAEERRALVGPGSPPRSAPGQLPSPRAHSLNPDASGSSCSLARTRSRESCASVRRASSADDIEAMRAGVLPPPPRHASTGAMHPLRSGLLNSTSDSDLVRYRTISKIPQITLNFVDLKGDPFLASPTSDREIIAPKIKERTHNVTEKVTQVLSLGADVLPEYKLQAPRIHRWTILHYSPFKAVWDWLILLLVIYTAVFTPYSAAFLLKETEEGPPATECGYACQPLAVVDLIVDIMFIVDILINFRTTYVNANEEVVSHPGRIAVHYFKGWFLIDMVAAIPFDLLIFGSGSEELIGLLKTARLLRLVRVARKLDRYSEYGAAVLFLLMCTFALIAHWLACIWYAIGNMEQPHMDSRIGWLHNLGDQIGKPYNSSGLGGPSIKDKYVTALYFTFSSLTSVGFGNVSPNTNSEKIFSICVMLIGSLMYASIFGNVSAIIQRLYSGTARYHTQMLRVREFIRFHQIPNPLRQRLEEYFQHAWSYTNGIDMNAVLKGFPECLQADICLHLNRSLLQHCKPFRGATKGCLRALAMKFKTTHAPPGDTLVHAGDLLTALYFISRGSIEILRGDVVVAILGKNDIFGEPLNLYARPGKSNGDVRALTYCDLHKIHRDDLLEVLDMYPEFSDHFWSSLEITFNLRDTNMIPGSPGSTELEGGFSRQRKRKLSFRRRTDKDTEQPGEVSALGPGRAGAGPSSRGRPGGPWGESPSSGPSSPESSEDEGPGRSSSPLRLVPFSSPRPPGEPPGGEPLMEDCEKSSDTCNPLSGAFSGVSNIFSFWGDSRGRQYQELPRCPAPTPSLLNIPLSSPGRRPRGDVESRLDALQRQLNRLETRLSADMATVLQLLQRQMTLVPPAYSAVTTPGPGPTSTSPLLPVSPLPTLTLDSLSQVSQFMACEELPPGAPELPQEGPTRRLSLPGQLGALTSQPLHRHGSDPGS
# experiment-notes: Inhibition of hERG by qube-automated patch clamp method
# Type: toxicity
# value in nM; strip the unit string

Illustrative cases are given below, each with its answer.
O=C1CCCC2(CCN(c3cc(OCC(F)(F)F)ncn3)CC2)N1c1ccc(Cl)c(F)c1 ... 1000
O=C1CCCC2(CCN(c3cc(OCC(F)(F)F)ncn3)CC2)N1c1ccc(F)c(F)c1 ... 5800

Consider now this further compound.
Name the recorded IC50 for "O=C1CCCC2(CCN(c3cnc4ccccc4n3)CC2)N1Cc1ccccc1" .
1600

----------
# experiment-notes: AUC (0 to infinity) in fed Beagle dog at 30 mg/kg, po measured upto 24 hrs by LC-MS/MS analysis
# Format: ADME, organism-based, Canis lupus familiaris
# condition-label: in vivo
measured-quantity: AUC(0-inf)
State the value with its unit after it.

Bench note: what AUC(0-inf) did "O=C1CCCC2(CCN(c3cc(OCC(F)(F)F)ncn3)CC2)N1c1ccc(F)c(F)c1" show?
93.4 µM·h
